For each record, write down the corresponding TGI.
System: U251 CNS
PROTOCOL_TEXT: NCI tumour cell line growth inhibition, 48 h

Some solved entries appear below for comparison.
>  <COMPOUND>
C=CCn1c(C23CC4CC(CC(C4)C2)C3)n[nH]c1=S

>  <TARGET_SYSTEM>
U251 CNS

>  <TGI>
> 100 µM

$$$$
>  <COMPOUND>
CC1(C)CCc2cc3c(cc2O1)OCC1c2cc4c(cc2OC31)OCO4 (stereo not given)

>  <TARGET_SYSTEM>
U251 CNS

>  <TGI>
> 100 µM

$$$$
>  <COMPOUND>
COC(=O)[C@H]1C[C@H]1NC(=O)C(CC(=O)OCc1ccccc1)NC(=O)OCc1ccccc1 (stereo not given in full)

>  <TARGET_SYSTEM>
U251 CNS

>  <TGI>
> 100 µM

$$$$
>  <COMPOUND>
COCc1cc2c(cc1/C(=C/[N+](=O)[O-])CS(=O)(=O)c1ccccc1)OCO2

>  <TARGET_SYSTEM>
U251 CNS

>  <TGI>
> 100 µM

$$$$

Next:
QUERY: Name the recorded TGI of the item CC(=O)OC(C)c1cc2c(s1)C(=O)c1scc(C(C)OC(C)=O)c1C2=O (stereo not given) in your answer.
RESULT: 1.66 µM

====

Tested on: OVCAR-5 ovarian
PROTOCOL_TEXT: NCI tumour cell line growth inhibition, 48 h
For each entry below, report its GI50 value.

>  <CHEMICAL_SMILES>
CCOC(=O)/C=C/c1cc2cc(-c3csc4ccccc34)ccc2[nH]1

>  <OBS_VALUE>
21.6 µM

$$$$
>  <CHEMICAL_SMILES>
CN1CCN(Cc2ccc(NC(=O)c3cncc(C#Cc4cncc5ncccc45)c3)cc2C(F)(F)F)CC1

>  <OBS_VALUE>
1.8 µM

$$$$

QUERY: Determine reported GI50 for O=C(c1ccco1)c1nc2cc(F)ccc2[n+]([O-])c1C(F)(F)F ; test system: OVCAR-5 ovarian.
RESULT: 26.7 µM

====

Test system: UACC-62 melanoma
PROTOCOL_TEXT: NCI tumour cell line growth inhibition, 48 h
So I've got a bunch of compounds here, and I need their GI50 values.

Completed entries (count: 2):
>  <COMPOUND>
C/C(=C\C1=C(Cl)C(=O)c2ccccc2C1=O)C(=O)O

>  <PARAMETER_MEASURED>
GI50

>  <OBS_VALUE>
17.2 µM

$$$$
>  <COMPOUND>
O=[N+]([O-])c1ccc2c(N3CCC(CCCC4CCN(c5ncnc6cc([N+](=O)[O-])ccc56)CC4)CC3)ncnc2c1

>  <PARAMETER_MEASURED>
GI50

>  <OBS_VALUE>
> 33.4 µM

$$$$

Provide GI50 for all items below, preserving their order.
1. O=C(c1ccco1)c1nc2cc(F)ccc2[n+]([O-])c1C(F)(F)F
2. N#Cc1ccc(N2Cc3ccccc3OC3=C2C(=O)c2c(O)ccc(O)c2C3=O)cc1
3. COc1ccc(C2=NN(C(=O)c3cc(OC)c(OC)c(OC)c3)C(c3ccc(Cl)cc3)C2)cc1OC (stereo not given)

RESULT:
["24.8 µM", "0.24 µM", "0.549 µM"]

====

System: HL-60(TB) leukemia
PROTOCOL_TEXT: NCI tumour cell line growth inhibition, 48 h; in the data active = GI50 below about 0.43 µM; inactive = the rest
Please state which outcome applies, choosing from t = active, f = inactive

Previously resolved entries follow.
>  <COMPOUND>
CC(=O)O[C@H](C[C@H](C(C)C)N(C)C(=O)[C@@H](NC(=O)[C@H]1CCCCN1C)C(C)C)c1nc(C(=O)N[C@@H](Cc2ccccc2)C[C@H](C)C(=O)O)c(C(C)C)s1

>  <TARGET_SYSTEM>
HL-60(TB) leukemia

>  <CLASS_LABEL>
t

$$$$
>  <COMPOUND>
COc1ccc2c(c1)C(=O)c1c-2c(Nc2ccc(C(C)=O)cc2)nc2ccccc12

>  <TARGET_SYSTEM>
HL-60(TB) leukemia

>  <CLASS_LABEL>
f

$$$$
>  <COMPOUND>
Cc1noc(C)c1-c1cc(O)cc(C(O)c2ccccc2)c1 (centres undefined)

>  <TARGET_SYSTEM>
HL-60(TB) leukemia

>  <CLASS_LABEL>
f

$$$$
>  <COMPOUND>
CN(C)c1ccc(/C=C(\C#N)c2nc3ccccc3n2C)cc1

>  <TARGET_SYSTEM>
HL-60(TB) leukemia

>  <CLASS_LABEL>
f

$$$$
>  <COMPOUND>
COc1ccc(-c2nn(-c3cccc(NC(=O)c4ccc5c(c4)OCCO5)c3)cc2-c2ccncc2)cc1Cl

>  <TARGET_SYSTEM>
HL-60(TB) leukemia

>  <CLASS_LABEL>
f

$$$$

QUERY: Short answer needed: outcome of this test for O=C(CN1CCN(c2ccc(Cl)cc2)CC1)N1CCN(c2nnc(-c3ccc(Cl)cc3)c(-c3ccc(Cl)cc3)n2)CC1 ?
RESULT: f

QUERY: // outcome(item) with item = CCCC[N+](CCCC)=c1ccc2nc3c(C)cc(N(CC)CC)cc3sc-2c1
RESULT: t

QUERY: Field: outcome | Entry: O=C(Nc1ccc(CN2CCOCC2)cc1)c1[nH]ncc1Nc1ncnc2sccc12
RESULT: t

QUERY: Given COC(=O)[C@]12CC[C@@H](C)[C@H](C)[C@@H]1C1=CC[C@@H]3[C@@]4(C)C(C=O)=C[C@@](C)(COC(=O)c5ccco5)[C@@H]4C(=O)C[C@@]3(C)[C@]1(C)CC2 , state the outcome it received in this test.
RESULT: f

====

System: SK-OV-3 ovarian
PROTOCOL_TEXT: NCI tumour cell line growth inhibition, 48 h
Would you mind telling me the reported TGI of each entry?

Use the examples below as a reference point.
>  <COMPOUND>
O=C(NNc1ccnc2cc(Cl)ccc12)/C(=C\c1ccccc1Cl)NC(=O)c1ccccc1

>  <TGI>
> 100 µM

$$$$
>  <COMPOUND>
c1ccc(C2SCc3nc4cc5ccccc5cc4n32)cc1 (stereo unspecified)

>  <TGI>
> 100 µM

$$$$
>  <COMPOUND>
COC(=O)C1C(OC(=O)C(Cl)(c2ccccc2)c2ccccc2)CC2CCC1N2C (stereo unspecified)

>  <TGI>
> 100 µM

$$$$
>  <COMPOUND>
CCCCCC(=O)Nc1nc[nH]c1C(N)=O

>  <TGI>
> 100 µM

$$$$
>  <COMPOUND>
O=C(CN1CCN(c2ccc(Cl)cc2)CC1)N1CCN(c2nnc(-c3ccc(Cl)cc3)c(-c3ccc(Cl)cc3)n2)CC1

>  <TGI>
> 100 µM

$$$$
>  <COMPOUND>
Cc1nc2ccccc2c(=O)n1NC(=O)c1ccc([N+](=O)[O-])cc1

>  <TGI>
> 100 µM

$$$$
>  <COMPOUND>
O=C(O)NCc1ccccc1 (tested in a mixture with another compound)

>  <TGI>
> 100 µM

$$$$
>  <COMPOUND>
Cc1ccc([N+](=O)[O-])cc1NC(=O)C(=O)C(C(=O)c1ccccc1F)C1OC(=O)c2ccccc21 (stereo unspecified)

>  <TGI>
> 100 µM

$$$$
>  <COMPOUND>
O=C(CCCN1CCOCC1)Nc1ccc(Cn2nnc3c2C(=O)c2nnn(Cc4ccc(NC(=O)CCCN5CCOCC5)cc4)c2C3=O)cc1

>  <TGI>
> 100 µM

$$$$
>  <COMPOUND>
CN(C)c1ncnc2c1nnn2C1OC(CO)C(O)C1O (stereo unspecified)

>  <TGI>
22.5 µM

$$$$

Below is a list of compounds. For each, state its recorded TGI.
1. Cc1ccc(S(=O)(=O)N/N=c2\c(C)c(C3=NS(=O)(=O)c4cc(S(N)(=O)=O)c(Cl)cc4N3)oc3c(Cl)cc(Cl)cc23)cc1
2. O=S(=O)(O)c1ccc(-c2nnc(-c3ccccn3)nc2-c2ccc(S(=O)(=O)O)o2)o1
3. CSC1=NC(C(N)=O)C(N)N1C (stereo unspecified)
4. C/C(=N\Oc1cc(Cl)ncn1)c1ccccn1

RESULT:
1. > 100 µM
2. > 100 µM
3. > 100 µM
4. > 100 µM

====

Tested on: NCI-H23 lung
PROTOCOL_TEXT: NCI tumour cell line growth inhibition, 48 h
For each of the compounds below, state its TGI.

Below is a list of compounds. For each, state its recorded TGI.
1. COc1cc2nccc(Oc3ccc(NC(=O)C4(C(=O)Nc5ccc(F)cc5)CC4)cc3)c2cc1Oc1ccc(N)cn1
2. O=c1c2ccccc2n2n1CC(O)C2 (stereo not given)
3. O=C1c2ccccc2C(=O)c2c(NCCNCCO)ccc(O)c21
4. NC(=S)Nc1cc(Cl)ccc1Cl
5. COc1cc(N/N=C/C#N)cc(OC)c1OC
6. O=C(c1ccccc1)c1ccc(OCCOc2ccc(Nc3ccccc3)cc2)cc1
7. CO/N=C(\C)c1cccc(Nc2cc(-c3ccccc3)nc3c(O)cccc23)c1
8. CCOP(=O)(OCC)C(N)Cc1ccc(OC)c(OC)c1 (stereo not given)

RESULT:
> 100 µM
> 100 µM
12 µM
> 100 µM
> 10 µM
> 100 µM
24 µM
> 100 µM

Each compound below has a recorded value; state its TGI.
1. O=C1c2ccccc2C(=Cc2ccccc2)c2ccccc21
2. O=C(CF)N(O)c1ccc(/C=C/c2ccccc2)cc1
3. CCCCCCCCCCCCCCCC(=O)OCC1CCCN2CCCCC12 (stereo not given)
4. CC(=O)OC[C@@H]1[C@H]2CC[C@]3(C)[C@@H](OC(C)=O)CC[C@H]3[C@@H]2CC[C@H]1C1(C)SCCS1

RESULT:
14.1 µM
98.4 µM
> 100 µM
> 25 µM

State the recorded TGI for every item in the following list.
1. O=C1C(c2c(O)[nH]c3ccc(S(=O)(=O)O)cc23)=Nc2ccc(Br)cc21
2. Cc1cccc2c(N)c3cccc(C(=O)NCC[N+](C)(C)Cc4sccc4[N+](=O)[O-])c3nc12
3. CCCCCC(=O)Nc1nc[nH]c1C(N)=O
4. O=C(c1ccco1)c1nc2cc(F)ccc2[n+]([O-])c1C(F)(F)F
5. O=C1C(Cl)=C(N2C(=O)CCCC2=O)C(=O)c2ccccc21
6. Cc1ccc([N+](=O)[O-])cc1NC(=O)C(=O)C(C(=O)c1ccccc1F)C1OC(=O)c2ccccc21 (stereo not given)
7. CCSC1(SCC)CC(Cc2ccc(OC)cc2)N(C=NC(C)(C)C)C1 (stereo not given)
8. CN(C)c1ccc(/C=C(\C#N)c2nc3ccccc3n2C)cc1

RESULT:
["> 100 µM", "30 µM", "> 100 µM", "42.7 µM", "36 µM", "> 100 µM", "43.3 µM", "> 88.5 µM"]

For the 5 compounds below, give their TGI values.
1. COC(=O)Nc1nc2ccc(S(=O)(=O)n3nnc4ccccc43)cc2[nH]1
2. CCCC[N+](CCCC)=c1ccc2nc3c(C)cc(N(CC)CC)cc3sc-2c1
3. CCOC(=O)C1=C(C)OC(=O)[C@@]2(OC)C=C(Cl)[C@@]12C
4. O=[As](O)(O)c1ccc(N=Nc2ccc([As](=O)(O)O)cc2)cc1
5. COC(=O)[C@]12CSC[C@H]1C[C@H](c1ccccc1OC)N2

RESULT:
> 100 µM
1.04 µM
> 100 µM
> 100 µM
> 100 µM

For each of the items listed, what is its TGI?
1. CCOC(=O)C1=C(O)CSC1=Nc1ccccc1
2. c1ccc(C2SCc3nc4cc5ccccc5cc4n32)cc1 (stereo not given)
3. O=C(CSC(c1ccccc1)c1ccccc1)N/N=C/c1cccc(Cl)c1
4. Oc1c(CN2CCCC2)cc(COCc2ccc(Br)cc2)c2cccnc12
5. CC(=O)O[C@H](C[C@H](C(C)C)N(C)C(=O)[C@@H](NC(=O)[C@H]1CCCCN1C)C(C)C)c1nc(C(=O)N[C@@H](Cc2ccccc2)C[C@H](C)C(=O)O)c(C(C)C)s1

RESULT:
> 100 µM
> 100 µM
29 µM
3.33 µM
> 33.3 µM

# batch size: 6; output TGI per entry
1. O=C(O)C1=C(C(=O)O)N(c2ccncc2)C(c2ccco2)=CC1c1ccccc1[N+](=O)[O-] (stereo not given)
2. O=c1cccccc1NCCCCCCNc1cccccc1=O
3. Cc1cccc(C(=O)/C=C/SC(=NC#N)SCc2ccccc2)c1
4. COc1ccc(C2=NN(C(=O)c3cc(OC)c(OC)c(OC)c3)C(c3ccc(Cl)cc3)C2)cc1OC (stereo not given)
5. CC(=O)C1=C(C)Cn2c(=O)c3ccccc3c(=O)n2C1
6. Cc1ccc(Nc2n[nH]c(=S)s2)cc1

RESULT:
25.8 µM
> 100 µM
47 µM
> 90.1 µM
> 100 µM
> 100 µM

Batch lookup, TGI per entry.
1. O=C(NNc1ccnc2cc(Cl)ccc12)/C(=C\c1ccccc1Cl)NC(=O)c1ccccc1
2. N=c1nc2n(cc1F)[C@@H]1O[C@H](CO)[C@@H](O)[C@@H]1O2
3. NCCCCN(CCCN)C(=O)c1ccccc1
4. CC(O)C(N=Cc1nc(-c2ccccc2)oc1O)C(=O)O (stereo not given)

RESULT:
["> 100 µM", "> 55.8 µM", "> 100 µM", "> 100 µM"]
